# system.name: T1, recombinant human CD14 (B294801, histidine tagged) (Homo sapiens, UniProt P08571)
# T1 construct: His; purchased Shanghai BaiYing Biotechnology Co., Ltd B294801 (Batch number 20200518A22)
# T1 sequence (P08571 20-345): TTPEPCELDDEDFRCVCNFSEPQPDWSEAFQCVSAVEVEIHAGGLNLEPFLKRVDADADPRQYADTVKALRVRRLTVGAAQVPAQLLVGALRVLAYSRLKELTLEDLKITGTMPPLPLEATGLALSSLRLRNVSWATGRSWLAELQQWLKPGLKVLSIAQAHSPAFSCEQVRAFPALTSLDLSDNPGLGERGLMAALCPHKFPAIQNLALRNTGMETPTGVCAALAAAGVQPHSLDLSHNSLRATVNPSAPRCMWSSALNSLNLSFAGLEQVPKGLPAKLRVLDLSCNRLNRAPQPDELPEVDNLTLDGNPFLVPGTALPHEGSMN
# assay.overview: Biacore 8K kinetic and affinity test of humanized antibodies (Example 8)
# Assay type: binding
# experimental.context: Biacore 8K, analyte B294801 0.78125-25 nM, capture 1 μg/mL
measured.property: koff (1:1 binding) (s⁻¹)
State the answer as a number, implicitly in s⁻¹.

Fill in the blank: the reported koff (1:1 binding) of D6DD3D014: humanized anti-CD14 antibody; VH SEQ ID NO: 53, VL SEQ ID NO: 55 (antibody, V domains shown) VH: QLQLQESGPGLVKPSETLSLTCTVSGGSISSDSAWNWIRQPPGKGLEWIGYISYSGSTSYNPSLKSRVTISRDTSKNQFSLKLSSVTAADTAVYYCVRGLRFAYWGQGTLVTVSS VL: DIQLTQSPSSLSASVGDRVTITCRASESVDSYVNSFLHWYQQKPGKAPKLLIYRASNLQSGVPSRFSGSGSRTDFTLTISSLQPEDVATYYCQQSNEDPYTFGQGTKLEIK is ____.
0.00318

Data provenance is patent US20250011456A1.
